# TARGET OR TEST SYSTEM: recombinant SARS-CoV-2 spike S1 RBD (R319-F541), C-terminal 6-His (SARS-CoV-2, UniProt P0DTC2 319-541)
# PROCEDURE TEXT: flow cytometry, blocking of binding to hACE-2 cells
EXPERIMENTAL ENDPOINT: percent blocking (%)
Numbers only, in %.

Some entries whose results are on file:
{"columns": ["BINDER", "percent blocking [%]"],
 "data": [
  ["1035762 (antibody, V domains shown) VH: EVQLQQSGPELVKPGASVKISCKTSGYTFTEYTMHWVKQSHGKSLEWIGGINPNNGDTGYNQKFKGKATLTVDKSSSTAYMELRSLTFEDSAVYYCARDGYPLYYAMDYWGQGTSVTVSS VL: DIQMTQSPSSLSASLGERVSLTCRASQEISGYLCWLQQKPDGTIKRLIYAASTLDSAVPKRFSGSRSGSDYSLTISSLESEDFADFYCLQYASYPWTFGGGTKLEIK", 94.1],
  ["1035224 (antibody, V domains shown) VH: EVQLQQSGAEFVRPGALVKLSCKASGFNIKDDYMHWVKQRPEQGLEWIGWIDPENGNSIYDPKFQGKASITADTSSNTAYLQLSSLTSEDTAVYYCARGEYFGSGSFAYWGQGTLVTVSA VL: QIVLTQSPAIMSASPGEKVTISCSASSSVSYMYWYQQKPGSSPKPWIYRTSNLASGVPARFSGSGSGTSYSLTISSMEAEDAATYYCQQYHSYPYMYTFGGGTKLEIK", 99.1],
  ["1035433 (antibody, V domains shown) VH: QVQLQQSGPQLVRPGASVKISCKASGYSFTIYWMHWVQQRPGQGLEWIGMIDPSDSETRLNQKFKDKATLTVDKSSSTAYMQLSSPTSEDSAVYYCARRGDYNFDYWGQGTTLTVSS VL: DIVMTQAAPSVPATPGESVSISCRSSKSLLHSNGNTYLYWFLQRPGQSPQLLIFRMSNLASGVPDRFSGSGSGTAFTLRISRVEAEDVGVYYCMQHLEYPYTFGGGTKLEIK", 93.7]
]}

Data point: 1035709 (antibody, V domains shown) VH: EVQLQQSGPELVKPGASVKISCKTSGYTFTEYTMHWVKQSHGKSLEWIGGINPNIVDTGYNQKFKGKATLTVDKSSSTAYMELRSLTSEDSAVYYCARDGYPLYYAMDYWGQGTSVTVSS VL: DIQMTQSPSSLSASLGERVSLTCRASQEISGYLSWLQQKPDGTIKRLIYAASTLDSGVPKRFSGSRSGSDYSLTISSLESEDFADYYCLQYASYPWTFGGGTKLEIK ; percent blocking = 94.7

Entry source: patent US20230408517A1
